- protocol_details: Visual solubility determination of Fingolimod free base in organic solvents at RT
- Format: physicochemical
- protocol_conditions: organic solvent or mixture, thermodynamic from solid; Ethyl acetate; visual determination at RT
property_measured: solubility (µg/mL)

In [3]: df
Out[3]:
                                   compound  units_label  assay_value
0  CCCCCCCCc1ccc(CCC(N)(CO)CO)cc1 [fingolimod]        µg/mL         4000

====

- protocol_details: Visual solubility determination of Fingolimod free base in organic solvents at RT
- Type: physicochemical
- protocol_conditions: organic solvent or mixture, thermodynamic from solid; Isopropanol; visual determination at RT
property_measured: solubility

>>> df
                     query_smiles  property_measured  assay_value
0  CCCCCCCCc1ccc(CCC(N)(CO)CO)cc1         solubility     20 mg/mL

====

- protocol_details: Visual solubility determination of Fingolimod free base in organic solvents at RT
- Type: physicochemical
- protocol_conditions: organic solvent or mixture, thermodynamic from solid; Methyl ethyl ketone; visual determination at RT
property_measured: solubility (µg/mL)

In [3]: df
Out[3]:
                     query_smiles  assay_value
0  CCCCCCCCc1ccc(CCC(N)(CO)CO)cc1         1200

====

- protocol_details: Visual solubility determination of Fingolimod free base in organic solvents at RT
- Assay type: physicochemical
- protocol_conditions: organic solvent or mixture, thermodynamic from solid; Acetone; visual determination at RT
property_measured: solubility

>>> df
                     query_smiles  assay_value
0  CCCCCCCCc1ccc(CCC(N)(CO)CO)cc1   5000 µg/mL

====

- protocol_details: Visual solubility determination of Fingolimod free base in organic solvents at RT
- Assay type: physicochemical
- protocol_conditions: organic solvent or mixture, thermodynamic from solid; tert-Butyl methyl ether; visual determination at RT
property_measured: solubility (µg/mL)

In [3]: df
Out[3]:
                     query_smiles  property_measured  units_label  assay_value
0  CCCCCCCCc1ccc(CCC(N)(CO)CO)cc1         solubility        µg/mL         2000

====

- protocol_details: Toxicokinetic / pK evaluation in Gottingen Minipigs (plasma tofacitinib, whole blood fingolimod and fingolimod phosphate)
- protocol_conditions: minipig, topical
property_measured: AUC(0-t) (ng·h/mL)

>>> df
                     query_smiles  assay_value
0  CCCCCCCCc1ccc(CCC(N)(CO)CO)cc1         3.73

====

- protocol_details: Visual solubility determination of Fingolimod free base in organic solvents at RT
- Type: physicochemical
- protocol_conditions: organic solvent or mixture, thermodynamic from solid; Dichloromethane; visual determination at RT
- Method: A visual solubility evaluation of Fingolimod free base was performed.
property_measured: solubility

>>> print(df.to_string())
                     query_smiles  assay_value
0  CCCCCCCCc1ccc(CCC(N)(CO)CO)cc1   6700 µg/mL

====

- protocol_details: in vivo
- protocol_conditions: both, Gottingen, minipig, plasma (tofacitinib); whole blood (fingolimod), topical
property_measured: Cmax (ng/mL)

                               query_smiles  units_label  assay_value
0  C[C@@H]1CCN(C(=O)CC#N)C[C@@H]1N(C)c1ncnc2[nH]ccc12        ng/mL         1.56

====

- protocol_details: Toxicokinetic / pK evaluation in Gottingen Minipigs (plasma tofacitinib, whole blood fingolimod and fingolimod phosphate)
- protocol_conditions: minipig, topical
property_measured: Cmax (ng/mL)

                     query_smiles  assay_value
0  CCCCCCCCc1ccc(CCC(N)(CO)CO)cc1        0.467

====

- protocol_details: Visual solubility determination of Fingolimod free base in organic solvents at RT
- Assay type: physicochemical
- protocol_conditions: organic solvent or mixture, thermodynamic from solid; Acetonitrile; visual determination at RT
property_measured: solubility

>>> df
                     query_smiles  assay_value
0  CCCCCCCCc1ccc(CCC(N)(CO)CO)cc1   1800 µg/mL

====

- protocol_details: Visual solubility determination of Fingolimod free base in organic solvents at RT
- Type: physicochemical
- protocol_conditions: organic solvent or mixture, thermodynamic from solid; Methyl isobutyl ketone; visual determination at RT
property_measured: solubility (µg/mL)

                                   compound  assay_value
0  CCCCCCCCc1ccc(CCC(N)(CO)CO)cc1 [fingolimod]         5000
